# MEASURED TARGET: T1, PolY (Y-family TLS DNA polymerase) (Saccharolobus/Sulfolobus solfataricus …, UniProt Q97W02 1-352)
# T1 sequence: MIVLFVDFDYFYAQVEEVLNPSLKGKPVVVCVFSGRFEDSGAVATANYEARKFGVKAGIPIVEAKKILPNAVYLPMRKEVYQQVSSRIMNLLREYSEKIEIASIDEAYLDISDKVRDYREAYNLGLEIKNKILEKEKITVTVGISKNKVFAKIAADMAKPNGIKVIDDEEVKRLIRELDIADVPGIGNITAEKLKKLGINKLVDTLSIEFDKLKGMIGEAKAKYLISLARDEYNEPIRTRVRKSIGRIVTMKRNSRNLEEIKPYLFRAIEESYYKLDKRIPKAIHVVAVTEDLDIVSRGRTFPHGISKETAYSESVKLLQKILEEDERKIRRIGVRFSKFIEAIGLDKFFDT
# ASSAY EXPLANATION: fluorescence anisotropy; Fluorescence anisotropy, 4 nM DNA, room temperature, 90 s incubation, Hill fit, mean of three titrations; binding buffer not stated in the material (as in ref 38)
# REPORTED CONDITIONS: protein: recombinant; label: 5'-FAM on primer (strand 1); primer-template, 5' overhang 26 nt on template (strand 2)
PROPERTY NAME: Kd (nM)
Answers are plain numbers, in nM.

INSERT INTO results (binder, value_units, measured_number) VALUES
  ('p26-FAM/t52Und (+3, undamaged) (dsDNA) DNA 1: GCGAGGCGAGCGCGAGCGATACCGCG DNA 2: CGTCCAACATGAAGCTTGCACTCGATCGCGGTATCGCTCGCGCTCGCCTCGC', 'nM', 31.2);

Field: next binder
The recorded Kd for entry p26-FAM/t528 (+3, 8-oxoG) (dsDNA, 8-oxoguanine at position 30 from 5' of strand 2 (23 from 3' end), written as G) DNA 1: GCGAGGCGAGCGCGAGCGATACCGCG DNA 2: CGTCCAACATGAAGCTTGCACTCGATCGCGGTATCGCTCGCGCTCGCCTCGC equals 13
